# target_system: Rap guanine nucleotide exchange factor 3 (Homo sapiens)
# test_details: Confirmatory qHTS for antagonist of cAMP-regulated guanine nucleotide exchange factor 3 (EPAC1) (AID 1645880); further: nearly all actives have a fitted effect of over 55% in size
# measurement_parameters: EPAC1 Rap1B-BODIPY-GDP exchange, fluorescence; series mostly up to 115 µM
Results filed as inconclusive are left out. Active and inactive are the calls of the source. The call rests on the fitted dose curve; in most records, active means well fitted inhibition curve with a large enough effect; inconclusive means small, poorly fitted or top-dose-only effect; inactive means no such curve, though single readings can be large or run the other way.
Your response should consist of one outcome taken from active, inactive

Data request: What call does the record list for Cc1ccc(S(=O)(=O)Nc2ccccc2C=Nc2cccc(C)c2C)cc1 ?
Data returned: inactive

Data request: Entry CC(C)(C)NC(=O)NC(=O)CN1CCc2ccccc21 please
Data returned: inactive

Data request: Entry O=C(Nc1ccccc1)c1ccccc1Br please
Data returned: inactive

Data request: Entry COc1cccc(C(=O)N(Cc2cc3ccc(C)cc3nc2N(C)C)C2CC2)c1OC please
Data returned: inactive

Data request: Entry COC(=O)c1cc(NC(=O)CC2C(=O)OCCN2Cc2ccccc2)cc(C(=O)OC)c1 (stereo not given) please
Data returned: inactive

Data request: Entry COc1ccc(OC)c(/C=c2\sc3nc(-c4cccs4)nn3c2=O)c1 please
Data returned: inactive

Data request: Entry O=C(Nc1ccccn1)c1cccc(S(=O)(=O)N2CCc3ccccc3C2)c1 please
Data returned: inactive

Data request: Entry Cc1ccc2nc(-c3ccccc3)c(Cc3ccccn3)n2c1 please
Data returned: inactive

Data request: Entry CCCCN1C(=O)C(C(=O)OCc2ccccc2)CC2=C1CCCC2=O (stereo not given) please
Data returned: inactive

Data request: Entry CCSc1nnc(NC(=O)C2CCN(S(=O)(=O)c3ccccc3C(F)(F)F)CC2)s1 please
Data returned: inactive

Data request: Entry Cc1ccc(C)c(S(=O)(=O)/N=C2\C=C(NS(=O)(=O)c3ccccc3)C(=O)c3ccccc32)c1 please
Data returned: active

Data request: Entry COc1ccc(N2CCN(C(=O)c3noc4c3CCCCC4)CC2)cc1 please
Data returned: inactive

Data request: Entry CC1(C)OCC(C2CC(c3ccccc3)NS(=O)(=O)O2)O1 (stereo not given) please
Data returned: inactive

Data request: Entry COC(=O)c1cc2sc(Cl)cc2n1Cc1c(C)cc(C)cc1C please
Data returned: inactive

Data request: Entry COc1ccccc1OCC(=O)Nc1cccc(S(=O)(=O)NC2=NCCCCC2)c1 please
Data returned: inactive

Data request: Entry CC(=O)Nc1ccc(NS(=O)(=O)c2cn(C)c(=O)n(C)c2=O)cc1 please
Data returned: inactive

Data request: Entry O=C(c1ccc(Br)o1)N1CCN(c2ccc3nnc(-c4ccc(F)cc4)n3n2)CC1 please
Data returned: inactive

Data request: Entry CCCCCCc1ccc(N2C[C@H](Cc3ccccc3)[C@@H](CC(=O)Nc3ccccc3)C2=O)cc1 please
Data returned: inactive

Data request: Entry Cc1nn(CCc2nn[nH]n2)c2nc(-c3ccc(C4CCCCC4)cc3)cc(C(F)(F)F)c12 please
Data returned: active

Data request: Entry C#CCOCCOCCOCCNc1nc(N2CCN(C(=O)[C@H](Cc3cc4ccccc4[nH]3)n3cc([C@@H](N)Cc4ccc(O)cc4)nn3)CC2)nc(N2CCN(C(=O)[C@H](Cc3cc4ccccc4[nH]3)n3cc([C@@H](N)CC(C)C)nn3)CC2)n1 please
Data returned: active
